target: UniProtKB Q59961; assay: S. pneumoniae Topoisomerase IV ATPase inhibition; format: biochemical; conditions: values marked * are an average of two or more data points, read-out: % Inh (13 μM) of S. pneumoniae Topoisomerase IV ATPase
Task for the reader: assign each of the following compounds its reported inhibition at 13 µM.
Provide the reading as a plain figure in %.

Prompt line: Please state recorded inhibition at 13 µM (tested on UniProtKB Q59961) of COc1cc(Nc2ncc(-c3cccc(/C=C/C(=O)O)c3)c(N[C@@H]3CCOC3)n2)cc(OC)c1 [Example 357]
Response line: 85.3

Prompt line: Request - read-out inhibition at 13 µM | tested on UniProtKB Q59961 | compound COc1cc(C)cc(Nc2ncc(-c3cnc(OC)c(C(=O)O)c3)c(-n3ccc(C(F)(F)F)n3)n2)c1 [Example 760]
Response line: 100

Prompt line: Give the reported inhibition at 13 µM for Cc1cc(C(F)(F)F)nn1-c1nc(Nc2ccc(F)c(Cl)c2)ncc1-c1cccc(/C=C/C(=O)O)c1 [Example 322] (system: UniProtKB Q59961).
Response line: 75

Prompt line: Quick check: inhibition at 13 µM on UniProtKB Q59961, item CN(C)CCCNc1nc(Nc2ccc(F)c(Cl)c2)ncc1-c1ccc2cc[nH]c2c1 [Example 4] ?
Response line: 93.1

Prompt line: Query inhibition at 13 µM on UniProtKB Q59961 for O=C(O)c1cncc(-c2cnc(Nc3ccc(F)c(Cl)c3)nc2N2CCC2)c1 [Example 253]
Response line: 75.1

Prompt line: Checklist item: inhibition at 13 µM tested on UniProtKB Q59961, entry COCCCNc1nc(Nc2ccc(F)c(Cl)c2)ncc1-c1nc(-c2ccn(C)n2)c(C(=O)O)s1 [Example 512] , value?
Response line: 100

Prompt line: Notebook entry, UniProtKB Q59961 assay: inhibition at 13 µM of Cc1cc(C(F)(F)F)nn1-c1nc(Nc2ccc(F)c(Cl)c2)ncc1-c1cncc(C(=O)N2CCOCC2)c1 [Example 931] = ?
Response line: 100

* * *

molecular target: S. pneumoniae Topoisomerase IV ATPase (ParE) (Streptococcus pneumoniae serotype 4); test: S. pneumoniae Topoisomerase IV ATPase inhibition; format: biochemical; conditions: values marked * are an average of two or more data points, read-out: % Inh (13 μM) of S. pneumoniae Topoisomerase IV ATPase
Sequence (Q59961 whole entry): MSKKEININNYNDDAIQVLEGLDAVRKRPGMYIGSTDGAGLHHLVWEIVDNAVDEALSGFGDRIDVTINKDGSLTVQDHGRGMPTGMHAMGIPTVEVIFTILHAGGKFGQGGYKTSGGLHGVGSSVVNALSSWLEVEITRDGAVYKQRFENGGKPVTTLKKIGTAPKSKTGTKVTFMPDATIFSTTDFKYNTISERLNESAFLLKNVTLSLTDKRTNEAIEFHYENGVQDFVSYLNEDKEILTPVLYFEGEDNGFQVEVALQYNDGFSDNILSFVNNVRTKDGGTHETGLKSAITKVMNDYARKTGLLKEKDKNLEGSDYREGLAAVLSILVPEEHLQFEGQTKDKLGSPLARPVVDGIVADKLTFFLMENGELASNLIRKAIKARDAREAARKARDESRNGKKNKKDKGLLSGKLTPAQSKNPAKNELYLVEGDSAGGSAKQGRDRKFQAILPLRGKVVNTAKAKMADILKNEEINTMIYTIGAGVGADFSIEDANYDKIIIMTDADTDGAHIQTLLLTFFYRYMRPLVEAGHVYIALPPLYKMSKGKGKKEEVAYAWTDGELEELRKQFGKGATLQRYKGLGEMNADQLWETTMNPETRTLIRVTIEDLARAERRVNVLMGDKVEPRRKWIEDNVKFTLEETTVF
Lab note: compare inhibition at 13 µM against 90%. Equal or greater, write MET. Smaller, write NOT MET.

Prompt line: Check if inhibition at 13 µM >= 90% (inclusive). Item: COc1cc(Nc2ncc(-c3cnc(OCCCS(C)(=O)=O)c(C(=O)O)c3)c(-n3ccc(C(F)(F)F)n3)n2)cc(OC)c1
Response line: MET

Prompt line: Form field: inhibition at 13 µM at least 90%? Entry: COc1ncc(-c2cnc(Nc3cccc(Cl)c3)nc2-n2nc(C(F)(F)F)cc2C)cc1C(=O)O
Response line: MET

Prompt line: Identify whether the reported inhibition at 13 µM of the following compound is 90% or greater: Cc1cc(C(F)(F)F)nn1-c1nc(Nc2ccc3c(c2)CCC3)ncc1-c1cccc(/C=C/C(=O)O)c1
Response line: NOT MET

Prompt line: Please check the record O=C(O)C1CCCCN1c1cccc(-c2cnc(Nc3ccc(F)c(Cl)c3)nc2-n2ccc(C(F)(F)F)n2)c1 (centres unmarked) and state if its inhibition at 13 µM is at or above 90%.
Response line: MET

Prompt line: Has COc1cc(Nc2ncc(-c3cnc(OC)c(C(=O)NS(=O)(=O)C(C)C)c3)c(-n3nc(C(F)(F)F)cc3C)n2)cc(OC)c1 a recorded inhibition at 13 µM greater than or equal to 90%?
Response line: MET

Prompt line: Could you tell me if the measured inhibition at 13 µM of CC(=O)NCCNc1nc(Nc2ccc(F)c(Cl)c2)ncc1-c1cncc(C(=O)O)c1 reaches 90% or more?
Response line: NOT MET

Prompt line: Does the reported inhibition at 13 µM for CC(=O)c1cccc(Nc2ncc(-c3cccc(/C=C/C(=O)O)c3)c(-n3ccc(C(F)(F)F)n3)n2)c1 fall at or above the 90% mark?
Response line: MET

Prompt line: Does the reported inhibition at 13 µM for CCOC(=O)/C=C/c1cccc(-c2cnc(Nc3ccc(F)c(Cl)c3)nc2N2CC(C)OC(C)C2)c1 (centres unmarked) fall at or above the 90% mark?
Response line: NOT MET

Prompt line: Decide: is the reported value of inhibition at 13 µM for COc1cc(F)cc(Nc2ncc(-c3cccc(C(=O)O)c3)c(-n3ccc(C(F)(F)F)n3)n2)c1 equal to or greater than 90%?
Response line: MET

Prompt line: Determine whether this compound has inhibition at 13 µM no lower than 90%: COc1ncc(-c2cnc(Nc3ccc(F)c(Cl)c3)nc2N2CCOCC2)cn1
Response line: NOT MET

Prompt line: Does the reported inhibition at 13 µM for Cn1cncc1CNc1nc(Nc2ccc(F)c(Cl)c2)ncc1-c1cccc(/C=C/C(=O)O)c1 fall at or above the 90% mark?
Response line: NOT MET

Prompt line: Decide: is the reported value of inhibition at 13 µM for COc1cccc(Nc2ncc(-c3cncc(C(=O)O)c3)c(N3CCOCC3)n2)c1 equal to or greater than 90%?
Response line: NOT MET

Prompt line: // inclusive: inhibition at 13 µM at least 90%? input: CONC(=O)c1cncc(-c2cnc(Nc3ccc(F)c(Cl)c3)nc2-n2cc(-c3ccncn3)cn2)c1
Response line: MET

Prompt line: State whether the measured inhibition at 13 µM reaches 90%, counting equality as reaching it, for COc1ncc(-c2cnc(Nc3cc(C)cc(C)c3)nc2-n2ccc(C(F)(F)F)n2)cc1C(=O)NS(=O)(=O)C(C)C
Response line: MET

Prompt line: Can Cc1cc(C)cc(Nc2ncc(-c3cc(C(=O)O)cnc3OCCN(C)C)c(-n3nc(C(F)(F)F)cc3C)n2)c1 be said to have inhibition at 13 µM at or above 90%?
Response line: MET

Prompt line: I'd appreciate it if you could say whether O=C(O)/C=C/c1cccc(-c2cnc(Nc3ccc(F)c(Cl)c3)nc2NCCc2cn[nH]c2)c1 has inhibition at 13 µM at least equal to 90%.
Response line: NOT MET

Prompt line: Threshold query (inhibition at 13 µM >= 90%) on COC(=O)[C@@H](C)Nc1nc(Nc2ccc(F)c(Cl)c2)ncc1-c1cncnc1
Response line: NOT MET

Prompt line: Answer whether inhibition at 13 µM of COc1ncc(-c2cnc(Nc3ccc(F)c(Cl)c3)nc2-n2nc(C(F)(F)F)cc2C)cc1C(=O)O is greater than or equal to 90%.
Response line: MET

Prompt line: Can Cc1cc(C)cc(Nc2ncc(-c3cncc(C(=O)O)c3)c(N3CCOCC3)n2)c1 be said to have inhibition at 13 µM at or above 90%?
Response line: NOT MET

Prompt line: Can CCOC(=O)c1cncc(-c2cnc(Nc3ccc(F)c(Cl)c3)nc2NCCN2CCS(=O)(=O)CC2)c1 be said to have inhibition at 13 µM at or above 90%?
Response line: NOT MET

Prompt line: Reported inhibition at 13 µM at or above 90%? CCn1cc(-c2cnc(Nc3cc(C)cc(OC)c3)nc2-n2nc(C(F)(F)F)cc2C)cc(C(=O)NS(C)(=O)=O)c1=O
Response line: MET

Prompt line: Check this compound for inhibition at 13 µM at or above 90%: CNc1ncc(-c2cnc(Nc3cc(OC)cc(OC)c3)nc2-n2ccc(C(F)(F)F)n2)cc1C(=O)O
Response line: MET

Prompt line: Item O=C(O)/C=C/c1cccc(-c2cnc(Nc3ccc(F)c([N+](=O)[O-])c3)nc2N2CCOCC2)c1 with inhibition at 13 µM of 90% or above?
Response line: NOT MET

Prompt line: Would you say CCS(=O)(=O)NC(=O)c1cc(-c2cnc(Nc3cc(OC)cc(OC)c3)nc2-n2ccc(C(F)(F)F)n2)cnc1OC shows inhibition at 13 µM at minimum 90%?
Response line: MET

Prompt line: Exam item: decide whether the reported inhibition at 13 µM for CC(=O)Nc1ccn(-c2nc(Nc3ccc(F)c(Cl)c3)ncc2-c2cncc(C(N)=O)c2)n1 is at least 90%.
Response line: MET

Prompt line: Kindly determine if inhibition at 13 µM recorded for O=C(O)C1CCCN(c2cccc(-c3cnc(Nc4ccc(F)c(Cl)c4)nc3-n3ccc(C(F)(F)F)n3)c2)C1 (centres unmarked) is above or exactly 90%.
Response line: MET

Prompt line: Determine whether this compound has inhibition at 13 µM no lower than 90%: O=C(O)c1cncc(-c2cnc(Nc3cc(F)cc(F)c3)nc2-n2ccc(C(F)(F)F)n2)c1
Response line: MET

Prompt line: Does CCCS(=O)(=O)NC(=O)c1cc(-c2cnc(Nc3cc(C)cc(C)c3)nc2-n2nc(C(F)(F)F)cc2C)cnc1OC have a reported inhibition at 13 µM of at least 90%?
Response line: MET

Prompt line: Reported inhibition at 13 µM reaches at least 90% for COc1ncc(-c2cnc(Nc3cc(C)cc(F)c3)nc2-n2ccc(C(F)(F)F)n2)cc1C(=O)O ?
Response line: MET
